System: CHO
protocolSummary: Cytotoxicity against CHO cells assessed as reduction in cell viability by MTT assay
Format: cell-based, Cricetulus griseus
conditionSummary: chinese hamster
API: label(entry) gives class 1 if the entry's CC50 is strictly smaller than 10 µM; on equality or larger values it gives class 0.

# TODO verify CC50 < 10 µM strictly for this molecule: CN1CCN(CC2CCN(c3nccc4[nH]c(-c5ccc(F)c(C(F)(F)F)c5)nc34)CC2)CC1
class 1

# TODO verify CC50 < 10 µM strictly for this molecule: C[C@@H]1CN(c2nccc3[nH]c(-c4ccc(F)c(F)c4)nc23)C[C@H](C)N1C
class 0

# TODO verify CC50 < 10 µM strictly for this molecule: CN1CCN(C[C@@H]2CCCN(c3nccc4[nH]c(-c5cc(F)cc(F)c5)nc34)C2)CC1
class 1

# TODO verify CC50 < 10 µM strictly for this molecule: CN1CCC(N2CCN(c3nccc4[nH]c(-c5ccc(F)c(F)c5)nc34)CC(F)(F)C2)CC1
class 0

# TODO verify CC50 < 10 µM strictly for this molecule: CN1CCOC2(CCN(c3nccc4[nH]c(-c5cc(F)cc(F)c5)nc34)CC2)C1
class 0

# TODO verify CC50 < 10 µM strictly for this molecule: CN1CCN(C2CCN(c3nccc4[nH]c(-c5ccc(F)c(C(F)(F)F)c5)nc34)CC2)CC1
class 1

# TODO verify CC50 < 10 µM strictly for this molecule: Cn1ccnc1N1CCN(CC2CCN(c3nccc4[nH]c(-c5cc(F)cc(F)c5)nc34)CC2)CC1
class 0

# TODO verify CC50 < 10 µM strictly for this molecule: CN1CCN([C@H]2CC[C@@H](Nc3nccc4[nH]c(-c5cc(F)cc(F)c5)nc34)CC2)CC1
class 0

# TODO verify CC50 < 10 µM strictly for this molecule: CN1CCN(CC2CCN(c3nccc4[nH]c(-c5ccc(F)c(Cl)c5)nc34)CC2)CC1
class 1
